Target: AGTR1 (Homo sapiens, UniProt P30556)
Construct: host or cells: Pathunter CHO-K1 AGTR1 β-arrestin cell line (CHO-K1)
Sequence (P30556 1-359): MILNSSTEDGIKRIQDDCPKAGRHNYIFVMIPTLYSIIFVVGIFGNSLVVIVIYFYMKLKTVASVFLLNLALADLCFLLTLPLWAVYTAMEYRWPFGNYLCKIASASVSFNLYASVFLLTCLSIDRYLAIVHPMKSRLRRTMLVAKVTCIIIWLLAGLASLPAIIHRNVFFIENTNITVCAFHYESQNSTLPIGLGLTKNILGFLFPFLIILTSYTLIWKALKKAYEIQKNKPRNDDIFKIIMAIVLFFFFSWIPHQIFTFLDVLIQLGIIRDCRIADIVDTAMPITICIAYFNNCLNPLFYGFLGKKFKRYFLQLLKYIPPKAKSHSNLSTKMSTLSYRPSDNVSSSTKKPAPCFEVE
Experiment: DiscoveRx IP1 accumulation assay (HTRF), agonist mode, Pathunter CHO-K1 AGTR1 β-arrestin cell line
Assay type: cell-based
Settings: read-out: IP-1 EC50
Protocol: In one aspect of the invention, signaling bias of compounds was assessed by comparing the relative activity of compounds to activate both the β-arrestin and Gq signaling pathways. […] Gq activation can be assessed by measuring the accumulation of inositol phosphates (e.g. IP3, IP1) that are liberated following activation of phospholipase C by Gq (Thomsen, Frazer et al. 2005). […] IP1 accumulation was measured in both agonist and antagonist modes. […]
Experimental readout: EC50 (nM)
Dear colleague, please return just the value in nM, with no unit written.

input: If you can, please state the reported EC50 value of CCc1nc2c(C)cc(C)nc2n1Cc1ccc(-c2cc(N3CCCC3=O)ccc2-c2nn[nH]n2)cc1 .
output: 3780

input: Consider the molecule shown here: CCc1nc2c(C)cc(C)nc2n1Cc1ccc(-c2cc(-c3cc(C(F)F)ccn3)ccc2-c2nn[nH]n2)cc1 What is its recorded EC50?
output: 26.5

input: Value lookup for EC50; key = CCCCC1=NC2(CCOCC2)C(=O)N1Cc1ccc(-c2cc(-c3ccccc3O)ccc2-c2nnn[nH]2)cc1
output: 60.1

input: Reported EC50 for CCc1nc2c(C)cc(C)nc2n1Cc1ccc(-c2cc(Nc3ccc(F)cc3)ccc2-c2nn[nH]n2)cc1 : what is it?
output: 24.2

input: Please give the measured EC50 for this molecule: CCc1nc2c(C)cc(C)nc2n1Cc1ccc(-c2cc(-c3cccc(OC)c3)ccc2-c2nn[nH]n2)cc1
output: 12.8

input: What measured EC50 goes with CCc1nc2c(C)cc(C)nc2n1Cc1ccc(-c2cc(-c3cn(CCO)nn3)ccc2-c2nnn[nH]2)cc1 ?
output: 213

input: Can you look up the measured EC50 of CCC1=NC2(CCOC2)C(=O)N1Cc1ccc(-c2cc(-c3ccccc3)ccc2-c2nnn[nH]2)cc1 (single isomer, unassigned) for me?
output: 826

input: # query: EC50 of entry CCCCC1=NC2(CCCC2)C(=O)N1Cc1ccc(-c2cc(-c3cc(C)ccn3)ccc2-c2nn[nH]n2)cc1
output: 19.2

input: For CCCCC1=NC2(CCCC2)C(=O)N1Cc1ccc(-c2cc(-c3ccccc3)ccc2C(=O)O)cc1 , what is its reported EC50?
output: 57.1

input: Give the measured EC50 of CCc1nc2c(C)cc(C)nc2n1Cc1ccc(-c2cc(-c3ccccc3O)ccc2-c2nn[nH]n2)cc1 .
output: 5

input: Sample CCc1nc2c(C)cc(C)nc2n1Cc1ccc(-c2cc(Oc3cccc(OC(F)(F)F)c3)ccc2-c2nnn[nH]2)cc1 — what was its EC50?
output: 39.1

input: If you can, please state the reported EC50 value of CCc1nc2c(C)cc(C)nc2n1Cc1ccc(-c2cc(-c3ccc(CO)cc3)ccc2C(=O)O)cc1 .
output: 200

input: # EC50 lookup, item CCC1=NC2(CCOC2)C(=O)N1Cc1ccc(-c2cc(-c3cccc(C)c3)ccc2-c2nnn[nH]2)cc1 (single isomer, unassigned) [Example 169]
output: 484

input: Return reported EC50; argument: CCc1nc2c(C)cc(C)nc2n1Cc1ccc(-c2cc(Oc3cncc(C)c3)ccc2-c2nn[nH]n2)cc1
output: 175

input: Recorded EC50 for CCc1nc2c(C)cc(C)nc2n1Cc1ccc(-c2cc(Oc3cc(F)ccn3)ccc2-c2nn[nH]n2)cc1 , please?
output: 177

input: Quick one: EC50 of CCc1nc2c(C)cc(C)nc2n1Cc1ccc(-c2cc(-c3ccc(OC)cc3)ccc2-c2nn[nH]n2)cc1 ?
output: 14.5

input: Would you mind telling me what EC50 value was observed for CCc1nc2c(C)cc(C)nc2n1Cc1ccc(-c2cc(-c3ccccc3)ccc2C(=O)O)cn1 ?
output: 869

input: So what's the measured EC50 for this one? CCc1nc2c(C)cc(C)nc2n1Cc1ccc(-c2cc(-c3ccc(CO)cc3)ccc2-c2nn[nH]n2)cc1
output: 51.3

input: Item under review: CCCCC1=NC2(CCCC2)C(=O)N1Cc1ccc(-c2cc(-c3cccc(C)n3)ccc2-c2nn[nH]n2)cc1 . Reported EC50?
output: 54.1

input: Which value of EC50 has been reported for CCc1nc2c(C)cc(C)nc2n1Cc1ccc(-c2cc(-c3cc(OC)ccn3)ccc2-c2nn[nH]n2)cc1 in the records?
output: 29

input: Look up EC50 for this molecule: CCc1nc2c(C)cc(C)nc2n1Cc1ccc(-c2cc(-c3cnn(C)c3)ccc2-c2nn[nH]n2)cc1
output: 77.3

input: Data request, read-out EC50, for CCc1nc2c(C)cc(C)nc2n1Cc1ccc(-c2cc(Oc3ccccc3)ccc2C(=O)O)cc1
output: 862

input: What measured EC50 goes with CCc1nc2c(C)cc(C)nc2n1Cc1ccc(-c2cc(-c3ccccc3)ccc2C(=O)O)cc1 ?
output: 234

From: patent US12037324B2
